src = ChEMBL document CHEMBL1150626

Please provide measured Activity for the entries that follow.
# System: Raji
# Protocol description: Inhibition of TPA-induced EBV-early antigen activation in human Raji cells assessed as EA activation at 500 mol ratio relative to TPA
# Format: cell-based
# Set-up: scale not given: the % may be the effect or the level left
# Condition notes: human gammaherpesvirus 4
Numbers only here, please. The scale is %.

Input COc1c2c(cc3c1-c1c(cc4c(c1OC)OCO4)[C@H](OC(=O)c1ccccc1)[C@@H](C)[C@@H](C)C3)OCO2 , output reported Activity.
60.1

Input COc1cc2c(c(OC)c1OC)-c1c(cc3c(c1OC)OCO3)[C@H](OC(C)=O)[C@H](C)[C@H](C)C2 , output reported Activity.
58.3

Input COc1cc2c(c(OC)c1OC)-c1c(cc3c(c1OC)OCO3)[C@H](OC(=O)c1ccccc1)[C@@](C)(O)[C@@H](C)C2 , output reported Activity.
59.2

Input COc1c2c(cc3c1-c1c(cc4c(c1OC)OCO4)C[C@H](C)[C@H](C)C3)OCO2 , output reported Activity.
50.7

Input COc1cc2c(c(OC)c1OC)-c1c(cc3c(c1OC)OCO3)C[C@H](C)[C@](C)(O)[C@H]2OC(=O)c1ccccc1 , output reported Activity.
60.2

Input C/C=C(/C)C(=O)O[C@H]1c2cc3c(c(OC)c2-c2c(cc4c(c2OC)OCO4)C[C@H](C)[C@]1(C)O)OCO3 , output reported Activity.
57.2

Input C/C=C(/C)C(=O)O[C@H]1c2cc3c(c4c2[C@@]2(CO4)C(=O)C(OC)=C(OC)C=C2C[C@@H](C)[C@H]1C)OCO3 , output reported Activity.
54.7

Input C/C=C(/C)C(=O)O[C@H]1c2cc3c(c4c2[C@@]2(CO4)C(=O)C(=O)C(OC)=C/C2=C/[C@@H](C)[C@H]1C)OCO3 , output reported Activity.
55.8
